# measured-target: T1, human angiopoietin-2 (human, UniProt O15123 19-496, limits assumed)
# T1 construct: Bought recombinant protein with a His tag (detected by anti-HIS-tag antibody); also called human Ang-2; hAng-2
# T1 sequence (looked up): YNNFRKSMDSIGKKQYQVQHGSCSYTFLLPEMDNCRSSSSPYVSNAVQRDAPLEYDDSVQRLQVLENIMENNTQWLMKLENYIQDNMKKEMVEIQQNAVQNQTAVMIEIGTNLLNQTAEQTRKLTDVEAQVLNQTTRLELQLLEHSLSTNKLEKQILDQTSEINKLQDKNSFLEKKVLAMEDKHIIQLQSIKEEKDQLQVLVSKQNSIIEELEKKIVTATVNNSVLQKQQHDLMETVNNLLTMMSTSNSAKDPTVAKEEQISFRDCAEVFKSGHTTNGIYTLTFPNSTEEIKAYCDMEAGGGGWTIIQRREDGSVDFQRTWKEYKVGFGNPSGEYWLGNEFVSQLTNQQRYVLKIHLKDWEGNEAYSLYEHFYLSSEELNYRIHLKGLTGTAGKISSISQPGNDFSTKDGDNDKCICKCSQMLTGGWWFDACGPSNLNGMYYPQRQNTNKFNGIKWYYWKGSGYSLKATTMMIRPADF
# assay-details: competition ELISA; 0.5 nM hAng-2 pre-incubated with binder, free hAng-2 captured on hTie-2 Fc (competitor)
Each item that follows carries a reported IC50.
measured-parameter: IC50 (nM)

binder: hNGAL lipocalin mutein SEQ ID NO: 5 (designed binder, Mutein of mature hNGAL) QDSTSDLIPAPPLSKVPLQQNFQDNQFHGKWYVVGQAGNYWLREDKDPIKMSATIYELKEDKSYNVTIVYFTRKKCSYRIYTFVPGSQPGEFTLGPIKSYPGDTSTLVRVVSTNYNQHAMVFFKHVYQNREWFEITLYGRTKELTSELKENFIRFSKSLGLPENHIVFPVPIDQCIDGSAWSHPQFEK
meas-value: 0.861
//
binder: hNGAL lipocalin mutein SEQ ID NO: 7 (designed binder, Mutein of mature hNGAL; Biotinylated with NHS-PEG4-Biotin for the SPR assay) QDSTSDLIPAPPLSKVPLQQNFQDNQFHGKWYVVGHAGNYILREDKDPEKMWATIYELKEDKSYDVTEVSFGPKKCNYRIWTFVPGSQPGEFTLGGIKSPPGDTSTLVRVVSTNYNQHAMVFFKHVLQNREFFEITLYGRTKELTSELKENFIRFSKSLGLPENHIVFPVPIDQCIDGSAWSHPQFEK
meas-value: 0.0619
//
binder: hNGAL lipocalin mutein SEQ ID NO: 9 (designed binder, Mutein of mature hNGAL; Biotinylated with NHS-PEG4-Biotin for the SPR assay) QDSTSDLIPAPPLSKVPLQQNFQDNQFHGKWYVVGHAGNYILREDKDPGKMWATIYELKEDKSYDVTEVSFGPKKCNYRIWTFVPGSQPGEFTLGGIKSPPGGTSTLVRVVSTNYNQHAMVFFKHVLQNREFFEITLYGRTKELTSELKENFIRFSKSLGLPENHIVFPVPIDQCIDGSAWSHPQFEK
meas-value: 0.0929
//
binder: hNGAL lipocalin mutein SEQ ID NO: 1 (designed binder, Mutein of mature hNGAL) QDSTSDLIPAPPLSKVPLQQNFQDNQFHGKWYVVGQAGNYILREDKDPGKMWATIYELKEDKSYNVTGVSFGPKKCNYTIWTFVPGSQPGEFTLGGIKSPPGGTSTLVRVVSTNYNQHAMVFFKHVLQNREFFEITLYGRTKELTSELKENFIRFSKSLGLPENHIVFPVPIDQCIDGSAWSHPQFEK
meas-value: 0.558
//
binder: hNGAL lipocalin mutein SEQ ID NO: 11 (designed binder, Mutein of mature hNGAL; Biotinylated with NHS-PEG4-Biotin for the SPR assay) QDSTSDLIPAPPLSKVPLQQNFQDNQFHGKWYVVGQAGNYILREDKDPVKMWATIYELKEDKSYDVTEVSFGPKKCNYRIWTFVPGSQPGEFTLGGIKSLPGGTSTLVRVVSTNYNQHAMVFFKHVLQNREFFEITLYGRTKELTSELKENFIRFSKSLGLPENHIVFPVPIDQCIDGSAWSHPQFEK
meas-value: 0.0988
//
binder: hNGAL lipocalin mutein SEQ ID NO: 2 (designed binder, Mutein of mature hNGAL) QDSTSDLIPAPPLSKVPLQQNFQDNQFHGKWYVVGFAGNHRLREDKDPGKMHATIYELKEDKSYNVTDVTFAFKKCNYRIHTFVPGSQPGEFTLGNIKSWPGETSTLVRVVSTNYNQHAMVFFKTVMQNREWFWITLYGRTKELTSELKENFIRFSKSLGLPENHIVFPVPIDQCIDGSAWSHPQFEK
meas-value: 1.71
//
binder: hNGAL lipocalin mutein SEQ ID NO: 12 (designed binder, Mutein of mature hNGAL) QDSTSDLIPAPPLSKVPLQQNFQDNQFHGKWYVVGVAGNWYLREDKDPIKMTATIYELKEDKSYDVTQVGFEQEKCKYSIHTFVPGSQPGEFTLGNIKSWPGDTSPLVRVVSTNYDQHAMVFFKGVMQDREVFAITLYGRTKELTSELKENFIRFSKSLGLPENHIVFPVPIDQCIDGSAWSHPQFEK
meas-value: 0.131
//
binder: hNGAL lipocalin mutein SEQ ID NO: 8 (designed binder, Mutein of mature hNGAL; Biotinylated with NHS-PEG4-Biotin for the SPR assay) QDSTSDLIPAPPLSKVPLQQNFQDNQFHGKWYVVGQAGNYILREDKDPGKMWATIYELKEDKSYDVTEVSFGAKKCNYRIWTFVPGSQPGEFTLGGIKSDPGGTSTLVRVVSTNYNQHAMVFFKHVLQNREFFEITLYGRTKELTSELKENFIRFSKSLGLPENHIVFPVPIDQCIDGSAWSHPQFEK
meas-value: 0.0708
//
binder: hNGAL lipocalin mutein SEQ ID NO: 10 (designed binder, Mutein of mature hNGAL) QDSTSDLIPAPPLSKVPLQQNFQDNQFHGKWYVVGQAGNYILREDKDPQKMWATIYELKEDKSYDVTGVSFGAKKCVYRIWTFVPGSQPGEFTLGGIKSPPGGTSTLVRVVSTNYNQHAMVFFKHVLQNREFFEITLYGRTKELTSELKENFIRFSKSLGLPENHIVFPVPIDQCIDGSAWSHPQFEK
meas-value: 0.0794
//
binder: hNGAL lipocalin mutein SEQ ID NO: 4 (designed binder, Mutein of mature hNGAL) QDSTSDLIPAPPLSKVPLQQNFQDNQFHGKWYVVGEAGNVELREDKDPVKMTATIYELKEDKSYNVTEVRFWLKKCKYNIHTFVPGSQPGEFTLGAIKSGPGMTSTLVRVVSTNYNQHAMVFFKTVMQNREWFWITLYGRTKELTSELKENFIRFSKSLGLPENHIVFPVPIDQCIDGSAWSHPQFEK
meas-value: 0.412
//
binder: hNGAL lipocalin mutein SEQ ID NO: 3 (designed binder, Mutein of mature hNGAL) QDSTSDLIPAPPLSKVPLQQNFQDNQFHGKWYVVGVAGNWYLREDKDPIKMTATIYELKEDKSYNVTQVGFEQKKCKYSIHTFVPGSQPGEFTLGDIKSWPGDTSLLVRVVSTNYNQHAMVFFKGVMQNREVFAITLYGRTKELTSELKENFIRFSKSLGLPENHIVFPVPIDQCIDGSAWSHPQFEK
meas-value: 0.319
